Target system: T1, ApoE4 amino acids 54-164, expressed on yeast (human, UniProt P02649 72-182)
T1 construct: with myc tag, on yeast cells; expression in yeast printed as Low; range counts on the mature protein; also called helix2 + 3 + 4
T1 chain: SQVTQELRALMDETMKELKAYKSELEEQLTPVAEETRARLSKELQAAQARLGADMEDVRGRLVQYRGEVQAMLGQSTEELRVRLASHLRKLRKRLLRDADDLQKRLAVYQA
Experimental protocol: yeast display of myc-tagged ApoE4 fragment, antibody staining

Binder	binding result
HJ1514 (antibody, V domains shown, murine monoclonal antibody from hybridoma) VH: EVNLEESGGGLVQPGGSMKLSCAASGFTFSDAWMDWVRQSPEKGLEWVAEIRNKADNHATYYAESVKGRFTISRNDSKSSVYLQMNSLRTEDTGIYYCVLWDYWGQGTTLTVSS VL: DIVMSQSPSSLAVSAGEKVTMTCKSSQSLLNSRTRKNFLTWYRQKPGQSPKPLIYWASSRESGVPDRFAGSGSGTDFTLTISSVQAEDLAVYYCKQSYNLPWTFGGGTKLEIKR	binds
HJ156 (antibody, V domains shown, murine monoclonal antibody from hybridoma; also called HJ156B (biotinylated)) VH: QVQLQQSGPELVKPGASVKISCKASGYIFTDYYINWVKRRPGQGLEWIGWIFPGSGVSYYNEQFKGKATLTVDKPSNTAYIFLSRLTSEDSAVYFCARYYSSSPFAYWGQGTLVTVSA VL: DVLMTQTPLSLPVSLGDQASISCRSSQNIIHSNGNTYLEWFLQRPGQSPELLIYKVSNRFSGVPDRFSGSGSGTDFTLKISRVEAEDLGVYYCFQGSHVPYTFGGGTKLEIKR	binds

Ref: patent US20250145697A1
